The reported measurements were obtained from paper PMC11288887.

- Target desc: (KLP)6 binder
- Assay details: FP
No end group written: not given here.
Quantity name: Kd (nM)

tetramethylrhodamine-DLPDLPDLPDLPDLPDLP [(DLP)6]; 4.6
